These data points were gathered from ChEMBL document CHEMBL3351569.

Recorded measurements of pIC50, one per entry
tested on: HeLa; test: Cytotoxicity against human HeLa cells assessed as reduction in cell viability after 24 hrs by MTS assay; type: functional, cell-based
Remember the convention: pIC50 equals -log10 of concentration in molar.

Here is how some compounds turned out for pIC50.
CCOC(=O)c1sc2nc(CC(=O)NNC(=S)Nc3ccccc3)[nH]c(=O)c2c1C 5.03
CCOC(=O)c1sc2nc(Cc3nnc(Nc4ccccc4)s3)[nH]c(=O)c2c1C 5.64
CCNC(=S)NNC(=O)Cc1nc2sc(C(=O)OCC)c(C)c2c(=O)[nH]1 5.77
CCn1c(S)nnc1Cc1nc2sc3c(c2c(=O)[nH]1)CCCC3 5.77
CCNc1nnc(Cc2nc3sc4c(c3c(=O)[nH]2)CCCC4)s1 5.42
O=c1[nH]c(Cc2nnc(S)n2-c2ccccc2)nc2sc3c(c12)CCCC3 9.02

Ask | What does the record list as pIC50 for CCNc1nnc(Cc2nc3sc(C(=O)OCC)c(C)c3c(=O)[nH]2)s1 ?
Reply | 5.48

Ask | Next compound: O=c1[nH]c(Cc2nnc(Nc3ccccc3)s2)nc2sc3c(c12)CCCC3
Reply | 5.73

---

Recorded measurements of pEC50, one per entry
tested on: HepG2; assay: Antiproliferative activity against human HepG2 cells by CellTiter-96 non-radioactive assay; format: functional, cell-based
Remember the convention: pEC50 equals -log10 of concentration in molar.

Here is how some compounds turned out for pEC50.
CCn1c(S)nnc1Cc1nc2sc(C(=O)O)c(C)c2c(=O)[nH]1 5.85
CCNC(=S)NNC(=O)Cc1nc2sc3c(c2c(=O)[nH]1)CCCC3 5.99
CCn1c(S)nnc1Cc1nc2sc3c(c2c(=O)[nH]1)CCCC3 5.68
CCNc1nnc(Cc2nc3sc(C(=O)OCC)c(C)c3c(=O)[nH]2)s1 5.90
CCNC(=S)NNC(=O)Cc1nc2sc(C(=O)OCC)c(C)c2c(=O)[nH]1 6.72

Next compound, pEC50 to be filled in.
Ask | What does the record list as pEC50 for NNC(=O)Cc1nc2sc3c(c2c(=O)[nH]1)CCCC3 ?
Reply | 5.66
